- system.name: mGluR5 receptor (Sus scrofa, UniProt I3LUI7)
- Construct: pig brain hemispheres without medulla, cerebellum and pons ... differential centrifugation at 900×g and 40,000×g
- Sequence (I3LUI7 1-1212): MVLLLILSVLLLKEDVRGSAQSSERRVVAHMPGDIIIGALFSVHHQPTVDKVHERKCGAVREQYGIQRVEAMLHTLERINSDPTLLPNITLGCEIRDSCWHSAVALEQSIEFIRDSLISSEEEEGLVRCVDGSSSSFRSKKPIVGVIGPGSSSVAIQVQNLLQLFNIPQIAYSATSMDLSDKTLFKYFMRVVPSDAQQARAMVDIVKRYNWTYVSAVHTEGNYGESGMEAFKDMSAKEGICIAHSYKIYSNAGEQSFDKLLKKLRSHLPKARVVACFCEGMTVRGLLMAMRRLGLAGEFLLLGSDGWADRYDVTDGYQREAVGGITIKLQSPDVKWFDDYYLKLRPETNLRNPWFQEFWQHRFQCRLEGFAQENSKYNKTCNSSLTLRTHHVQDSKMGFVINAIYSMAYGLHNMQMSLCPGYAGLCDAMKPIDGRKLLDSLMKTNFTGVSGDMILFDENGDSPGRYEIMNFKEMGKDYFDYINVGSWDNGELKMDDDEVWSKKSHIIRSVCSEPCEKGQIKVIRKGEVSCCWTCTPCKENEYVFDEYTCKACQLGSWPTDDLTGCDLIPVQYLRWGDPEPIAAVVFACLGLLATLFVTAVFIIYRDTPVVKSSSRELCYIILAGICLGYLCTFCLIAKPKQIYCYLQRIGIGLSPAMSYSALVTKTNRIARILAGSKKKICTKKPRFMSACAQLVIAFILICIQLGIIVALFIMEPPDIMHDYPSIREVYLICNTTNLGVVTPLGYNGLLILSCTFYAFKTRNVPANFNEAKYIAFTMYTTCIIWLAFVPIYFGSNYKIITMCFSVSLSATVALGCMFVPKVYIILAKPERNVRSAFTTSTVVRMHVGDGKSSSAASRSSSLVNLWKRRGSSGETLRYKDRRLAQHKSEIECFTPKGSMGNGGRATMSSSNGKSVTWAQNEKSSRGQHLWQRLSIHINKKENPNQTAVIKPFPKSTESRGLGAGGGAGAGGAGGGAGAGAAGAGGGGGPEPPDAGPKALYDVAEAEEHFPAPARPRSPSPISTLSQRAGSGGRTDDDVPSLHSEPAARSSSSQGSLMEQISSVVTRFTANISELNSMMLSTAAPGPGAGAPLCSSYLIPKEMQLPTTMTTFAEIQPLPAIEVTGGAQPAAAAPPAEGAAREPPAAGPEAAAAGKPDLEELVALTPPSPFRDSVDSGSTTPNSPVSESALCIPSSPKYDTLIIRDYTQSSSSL
- protocol.description: Inhibition of [^3H]-MPEP binding in the mGluR5 receptor binding assay (pig brain homogenate)
- run.conditions: 10 μM test compound, 5 nM [^3H]-MPEP
- Protocol: I. Method for Determining the Inhibition of [^3H]-MPEP Binding in the mGluR5 Receptor Binding Assay […] The batches are then filtered with the assistance of a Brandel Cell Harvester (Brandel, Robotic 9600 model) on Unifilter plates with glass filter mats (Perkin Elmer, order number 6005177) and then washed 3 times with buffer (as above) using 250 μl per sample. […] Nonspecific binding is determined by the addition of 10 μM MPEP (Tocris, order number 1212).
We use 60% as the dividing line for inhibition at 10 µM: on or above the line is Fulfilled, below is Not fulfilled.

{"molecule": "O=C(C#Cc1ccccc1)NC1CCN(c2nccs2)C1 (stereo not drawn)", "system.name": "mGluR5 receptor (Sus scrofa, UniProt I3LUI7)", "answer.label": "Fulfilled"}
{"molecule": "O=C(C#Cc1ccccc1)NC1CCCCC1Nc1nccs1 (stereo not drawn)", "system.name": "mGluR5 receptor (Sus scrofa, UniProt I3LUI7)", "answer.label": "Not fulfilled"}
{"molecule": "Cc1csc(N2CCC(NC(=O)C#Cc3cccs3)C2)n1 (stereo not drawn)", "system.name": "mGluR5 receptor (Sus scrofa, UniProt I3LUI7)", "answer.label": "Not fulfilled"}
{"molecule": "CN(C(=O)C#Cc1ccccc1)C1CCCCC1N(C)c1nccs1 (stereo not drawn)", "system.name": "mGluR5 receptor (Sus scrofa, UniProt I3LUI7)", "answer.label": "Not fulfilled"}
{"molecule": "Cc1cnc(N2CCC(NC(=O)C#Cc3cccs3)C2)s1 (stereo not drawn)", "system.name": "mGluR5 receptor (Sus scrofa, UniProt I3LUI7)", "answer.label": "Not fulfilled"}
{"molecule": "Cc1csc(N2CCC(NC(=O)C#Cc3cccc(Cl)c3)C2)n1 (stereo not drawn)", "system.name": "mGluR5 receptor (Sus scrofa, UniProt I3LUI7)", "answer.label": "Fulfilled"}

Evaluate O=C(C#Cc1ccccc1)N1CCCC(Nc2nccs2)C1 (stereo not drawn) : inhibition at 10 µM at minimum 60%?
Not fulfilled

Evaluate Cc1cnc(N2CCC(NC(=O)C#Cc3ccccn3)C2)s1 (stereo not drawn) : inhibition at 10 µM at minimum 60%?
Not fulfilled

Evaluate Cc1nc(N2CCC(NC(=O)C#Cc3cccc(Cl)c3)C2)sc1C (stereo not drawn) : inhibition at 10 µM at minimum 60%?
Fulfilled

Source: patent US7871999B2
